Hello, the source for this data is the supplement of paper PMC9732359, in case you need it.

Assay: protein stability index of a GFP-peptide fusion (yeast GPS) (PSI 1-4); higher = more stable; sorted into four equal gates, so the index is relative within each strain
Settings: pdr5∆
As shown below, each of these sequences has a reported protein stability index value.
OBSERVED PROPERTY: protein stability index

[[record]]
residue_sequence = "VNYRHFKAMEDVIAWKN [ITC1]"
endpoint_value = 3.36

[[record]]
residue_sequence = "DKIPLNYAMTRNILHNT [SRB5]"
endpoint_value = 2.34

[[record]]
residue_sequence = "SKYYPGVIIKVEESGEH [SNU114]"
endpoint_value = 2.08

[[record]]
residue_sequence = "GVEVRVTPTKTEVIIRA [RPS3]"
endpoint_value = 1.73

[[record]]
residue_sequence = "LYSGLIIDEIITQMRVN [RPC82]"
endpoint_value = 2.36

[[record]]
residue_sequence = "PSLYRLLNILITYGIIK [SRB8]"
endpoint_value = 1.07

[[record]]
residue_sequence = "VTRLFFICSIIQTVVIS [YML031W/NDC1]"
endpoint_value = 1.28

[[record]]
residue_sequence = "DRKDQDDRDHFGKKRLD [RPB2]"
endpoint_value = 3.04

[[record]]
residue_sequence = "EDYAIVTKGGTVENPLR [PRP28]"
endpoint_value = 2.98

[[record]]
residue_sequence = "PLLSNYASKINRAEGPE [RGR1]"
endpoint_value = 2.8

[[record]]
residue_sequence = "IRAELLNDRKVLFAAYK [RPB11]"
endpoint_value = 2.19

[[record]]
residue_sequence = "NVFVILMDKCLPKVRIR [DIS3]"
endpoint_value = 1.87

[[record]]
residue_sequence = "GYDINYISKIGEKIDSN [SWI1]"
endpoint_value = 2.98

[[record]]
residue_sequence = "DAIAVTKGHGFEGVTHR [RPL3]"
endpoint_value = 3.19

[[record]]
residue_sequence = "QTGIFVYQNNITPSAMK [RPB5]"
endpoint_value = 2.55

[[record]]
residue_sequence = "SRKQKVIKTLTVDVSSP [RPL22B]"
endpoint_value = 2.6

[[record]]
residue_sequence = "CIFGDAFDVDRAKSCGV [RPL1A]"
endpoint_value = 2.75

[[record]]
residue_sequence = "VSLPEGSFKRVKPQYDE [BRR2]"
endpoint_value = 3.09

[[record]]
residue_sequence = "NMLPQRQSSVGSLNATN [SNF2]"
endpoint_value = 3.3

[[record]]
residue_sequence = "PSKDSFTKYKPARSSSL [YAR002W/NUP60]"
endpoint_value = 2.59

[[record]]
residue_sequence = "KKRSHHGKASRQQYYSG [SNF6]"
endpoint_value = 3.11

[[record]]
residue_sequence = "TGVVYNVTKSSVGVIIN [RPL21A]"
endpoint_value = 2.6

[[record]]
residue_sequence = "TRKAARPQKLRASLVPG [RPL6A]"
endpoint_value = 1.5

[[record]]
residue_sequence = "ILTTAVGLVSPSFMLKH [RPN1]"
endpoint_value = 1.93

[[record]]
residue_sequence = "SGGWGVPRKFKHFIQGG [RPL7A]"
endpoint_value = 3.23

[[record]]
residue_sequence = "LQPIKGESARRFQKCFP [RPC40]"
endpoint_value = 3

[[record]]
residue_sequence = "ALLRVTKSKNKTLIGLQ [POP4]"
endpoint_value = 2.18

[[record]]
residue_sequence = "VSFRTHNSHLSLNYKFT [SRP21]"
endpoint_value = 2.99

[[record]]
residue_sequence = "VWDKFAVNLLNCPHSDS [SSN2]"
endpoint_value = 2.81

[[record]]
residue_sequence = "RRIPKRMRNRALREMRK [POP1]"
endpoint_value = 2.45

[[record]]
residue_sequence = "DEKEKQLAVANEIIRSL [SIR4]"
endpoint_value = 2.25

[[record]]
residue_sequence = "EPLSDTEEPDLAIADVE [DSN1]"
endpoint_value = 2.81

[[record]]
residue_sequence = "TTTSNTSGTNIAGTFNV [YOR098C/NUP1]"
endpoint_value = 2.54

[[record]]
residue_sequence = "HADKDTFSSSISTYIST [POP8]"
endpoint_value = 2.58

[[record]]
residue_sequence = "FDFLMNMPNCDYLTLNK [RPN2]"
endpoint_value = 2.31

[[record]]
residue_sequence = "GQSAGKLAAIVEIIDQK [RPL14A]"
endpoint_value = 3.29

[[record]]
residue_sequence = "EYNKPNSEKFVFLLTTR [ISW2]"
endpoint_value = 2.58

[[record]]
residue_sequence = "PKELGGLGMISASHILI [PRP8]"
endpoint_value = 2.67

[[record]]
residue_sequence = "VEPVTERTKLQEHTIFT [SNU114]"
endpoint_value = 2.35

[[record]]
residue_sequence = "SSVIQNYDIITASSLAH [YML103C/NUP188]"
endpoint_value = 1.88

[[record]]
residue_sequence = "KTNEESAKMILLSDPTI [PRP8]"
endpoint_value = 2.95

[[record]]
residue_sequence = "KRYTSEGTRNRFSYSPP [YMR129W/POM152]"
endpoint_value = 3.09

[[record]]
residue_sequence = "IPTLAIDSVEVETNTTV [RPB3]"
endpoint_value = 2.44

[[record]]
residue_sequence = "IRLANESSELNKDSIEE [CSN12]"
endpoint_value = 3.43

[[record]]
residue_sequence = "FVDDMLRDYRFEDATRE [SNF5]"
endpoint_value = 3

[[record]]
residue_sequence = "SASLKKIQQHNTILNSS [BRR2]"
endpoint_value = 2.93

[[record]]
residue_sequence = "ILVLALEDLKDVYASKV [PRP8]"
endpoint_value = 1.8

[[record]]
residue_sequence = "KSSWRQEWLANLKLISV [SIR4]"
endpoint_value = 1.45

[[record]]
residue_sequence = "PIGRHEELLAQYESQAP [SWP82]"
endpoint_value = 2.25

[[record]]
residue_sequence = "QYVTQIEQEKQEQQEQD [PRE6]"
endpoint_value = 1.93

[[record]]
residue_sequence = "TNFKEEITDASLNLQYV [YML103C/NUP188]"
endpoint_value = 3.06

[[record]]
residue_sequence = "DINQAKDFIENVNNRFD [BRN1]"
endpoint_value = 3.23

[[record]]
residue_sequence = "QLKNVQLDSYLVNGFSQ [MED2]"
endpoint_value = 2.68

[[record]]
residue_sequence = "RRRDFGAPANKRPRRGL [SMD1]"
endpoint_value = 2.93

[[record]]
residue_sequence = "VMLLGTPDANLISKPAK [UBP6]"
endpoint_value = 3.28

[[record]]
residue_sequence = "DLVKPKNPKFSNAFYSV [SMC4]"
endpoint_value = 2.42

[[record]]
residue_sequence = "MRILSNDITNLQLSKTP [SRB8]"
endpoint_value = 2.71

[[record]]
residue_sequence = "KPIYKDTRFGGRMDMTR [SSN2]"
endpoint_value = 3.36

[[record]]
residue_sequence = "GDLVYARVCTAEKELEA [RRP40]"
endpoint_value = 1.51

[[record]]
residue_sequence = "KGPIIISKNPSNGIFYG [SIR2]"
endpoint_value = 2.5

